Biological target: E105A (Staphylococcus aureus, UniProt Q2FV99, E105A)
Construct: 6xHis (N)
Assay: Fluorescence quenching assay, SrtA mutant E105A
Description: The sequence of srtA from S. aureus USA300 was retrieved from the GenBank database. The srtA gene lacking the transmembrane domain (N1–59) was amplified using PCR. The PCR product was then digested and cloned in the BamHI/XhoI restriction sites of the pET28a vector, yielding pET28a-srtA. […] The binding constants (KA) of orientin to SrtA were determined using the fluorescence quenching assay. The spectra were recorded in the wavelength interval of 280–400 nm. […]
EXPERIMENTAL_READOUT: Kd (µM)
// units = µM; emit number, no label

Lab request: please report Kd under test system E105A (Staphylococcus aureus, UniProt Q2FV99, E105A) for O=c1cc(-c2ccc(O)c(O)c2)oc2c([C@@H]3O[C@H](CO)[C@@H](O)[C@H](O)[C@H]3O)c(O)cc(O)c12 [orientin]
23.5

====

EXPERIMENTAL_READOUT: pKd
In plain terms, pKd is the concentration in mol/L turned into minus its base-10 logarithm.

For WT-SrtA (Staphylococcus aureus), provide pKd of `O=c1cc(-c2ccc(O)c(O)c2)oc2c([C@@H]3O[C@H](CO)[C@@H](O)[C@H](O)[C@H]3O)c(O)cc(O)c12` please.
4.85

====

EXPERIMENTAL_READOUT: pIC50
Expect pIC50 as a plain number equal to -log10 of the molar concentration.

Short answer please: pIC50, SrtA (Staphylococcus aureus, UniProt Q2FV99), entry O=c1cc(-c2ccc(O)c(O)c2)oc2c([C@@H]3O[C@H](CO)[C@@H](O)[C@H](O)[C@H]3O)c(O)cc(O)c12 [orientin]
4.30
